All values here come from patent US11497212B2.

Recorded Stellaria media (Efficacy in %) by entry
# System: Stellaria media
# method_notes: Herbicidal action post-emergence (greenhouse pot trial)
# Type: in vivo
# experimental_setup: application rate 20 g/ha, scored visually after about 3 weeks vs untreated controls
endpoint_label: Stellaria media (Efficacy in %)

compound	result
CC(Sc1cc(-n2c(=O)cc(C(F)(F)F)n(C)c2=O)c(F)cc1Cl)C(=O)OC1CCCOC1 (stereo not drawn) [I.1-126]	100
CC(Sc1cc(-n2c(=O)cc(C(F)(F)F)n(C)c2=O)c(F)cc1Cl)C(=O)OCCCSC(F)(F)F (stereo not drawn) [I.1-48]	100
CCC(Sc1cc(-n2c(=O)cc(C(F)(F)F)n(C)c2=O)c(F)cc1Cl)C(=O)OCC1COC(C)C1 (stereo not drawn) [I.2-73]	100
CC(Sc1cc(-n2c(=O)cc(C(F)(F)F)n(C)c2=O)c(F)cc1Cl)C(=O)NC1CCCOC1 (stereo not drawn) [I.1-276]	100
CC(Sc1cc(-n2c(=O)cc(C(F)(F)F)n(C)c2=O)c(F)cc1Cl)C(=O)OC1CCSC1 (stereo not drawn) [I.1-123]	100
CC(Sc1cc(-n2c(=O)cc(C(F)(F)F)n(C)c2=O)c(F)cc1Cl)C(=O)OCC1CCSC1 (stereo not drawn) [I.1-82]	80
CCC(Sc1cc(-n2c(=O)c(C)c(C(F)(F)F)n(C)c2=O)c(F)cc1Cl)C(=O)OCC1CCOC1 (stereo not drawn) [I.12-72]	100
CC(Sc1cc(-n2c(=O)cc(C(F)(F)F)n(C)c2=O)c(F)cc1Cl)C(=O)OC1CCOC1 (stereo not drawn) [I.1-121]	100
CCC(Sc1cc(-n2c(=O)c(C)c(C(F)(F)F)n(C)c2=O)c(F)cc1Cl)C(=O)NCC1CCCO1 (stereo not drawn) [I.12-221]	80
CCC(Sc1cc(-n2c(=O)cc(C(F)(F)F)n(C)c2=O)c(F)cc1Cl)C(=O)OCC1CCCCO1 (stereo not drawn) [I.2-91]	80
CC(Sc1cc(-n2c(=O)cc(C(F)(F)F)n(C)c2=O)c(F)cc1Cl)C(=O)NCC1CCCCO1 (stereo not drawn) [I.1-241]	100
Cn1c(C(F)(F)F)cc(=O)n(-c2cc(SCC(C)(C)C(=O)OCC3CCCCO3)c(Cl)cc2F)c1=O (stereo not drawn) [I.48-91]	100
CC(Sc1cc(-n2c(=O)cc(C(F)(F)F)n(C)c2=O)c(F)cc1Cl)C(=O)NCC1COC(C)(C)O1 (stereo not drawn) [I.1-334]	90
Cn1c(C(F)(F)F)cc(=O)n(-c2cc(SCC(C)(C)C(=O)OC3CCOCC3)c(Cl)cc2F)c1=O [I.48-127]	100
CC(CC(=O)OCC1CCCO1)Sc1cc(-n2c(=O)cc(C(F)(F)F)n(C)c2=O)c(F)cc1Cl (stereo not drawn) [I.49-71]	100
CCC(Sc1cc(-n2c(=O)c(C)c(C(F)(F)F)n(C)c2=O)c(F)cc1Cl)C(=O)OCC1CCCO1 (stereo not drawn) [I.12-71]	100
CC(Sc1cc(-n2c(=O)cc(C(F)(F)F)n(C)c2=O)c(F)cc1Cl)C(=O)OC1CCSCC1 (stereo not drawn) [I.1-132]	80
Cn1c(C(F)(F)F)cc(=O)n(-c2cc(SCC(C)(C)C(=O)NCC3CCCO3)c(Cl)cc2F)c1=O (stereo not drawn) [I.48-221]	100
